- Tested on: F380Y/beta2Delta
- test method notes: modulators of BK channel variants, profiling panel, selectivity assay, cell-based, U2OS BacMam, thallium flux, beta subunits (AID 1259406);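 note: initial slope of Thallos dye fluorescence rise after thallium is added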
- assay context: at 30 µM
Calls of active or inactive are those of the source.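 Rule for the calls: active = thallium flux through the channel raised or lowered by more than 3 SD from vehicle-only wells, actives on both sides; inactive = the rest.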
Your response should consist of one outcome taken from t for active, f for inactive

Answered examples (3):
| compound | label value |
| --- | --- |
| CCN1CCN(C(=O)N[C@@H](C(=O)N[C@@H]2C(=O)N3[C@@H]2SC(C)(C)[C@@H]3C(=O)O)c2ccccc2)C(=O)C1=O | f |
| COc1cc(Cc2cnc(N)nc2N)cc(OC)c1OC | f |
| Clc1ccccc1CN1CCc2sccc2C1 | t |

Enquiry: So what was the verdict on `CCn1cc(C(=O)O)c(=O)c2ccc(C)nc21` in this test?
Return: f

Enquiry: Can you check CCc1ccc(CCOc2ccc(CC3SC(=O)NC3=O)cc2)nc1 (configuration not stated) next?
Return: f

Enquiry: Query `OC[C@H]1O[C@@H](Oc2cc(O)cc(/C=C/c3ccc(O)cc3)c2)[C@H](O)[C@@H](O)[C@@H]1O` next
Return: f

Enquiry: And then `NC(=O)c1cccnc1` , what is it?
Return: f
